Test: NCI Yeast Anticancer Drug Screen. Data for the rad18 strain (AID 177)
Details: S. cerevisiae rad18 mutant growth inhibition; at 3.7 µM
This is part of a sample that, as a whole, favours compounds with a hit. Of some 79,000 tested, about 15% had one in any assay. Activity calls are given as the source filed them. No stated cut-off is given here; in the data, active means growth inhibition above about 70%; inactive means the rest.
Thanks in advance; please answer with one of these: active, inactive

compound | assigned.class
C=C1C(=O)OC2CC1C(OC(C)=O)C/C(C)=C/CC/C(C)=C\CCC2(C)O (stereo not drawn) | inactive
Oc1cccc2cc(Cl)cnc12 | inactive
CC(C)OC(=O)Nc1ccc2nc(-c3cscn3)[nH]c2c1 | inactive

Answer briefly: the call reported for Cc1ccc(CC2(OCCN(C)C)CCC(C(C)(C)C)CC2)cc1 (stereo not drawn) in this assay.
inactive

Answer briefly: the call reported for CC(O)=NC(Cc1ccc2ccccc2c1)C(O)=NC(Cc1ccc(Cl)cc1)C(O)=NC(Cc1c[nH]c2ccccc12)C(O)=NC(CO)C(O)=NC(Cc1ccc(O)cc1)C(O)=NC(CCCN=C(N)N)C(O)=NC(CC(C)C)C(O)=NC(CCCN=C(N)N)C(=O)N1CCCC1C(O)=NC(C)C(=N)O (stereo not drawn) in this assay.
inactive

Answer briefly: the call reported for CC(=O)OCC1OC2OC(=O)NC2C(OC(C)=O)C1OC(C)=O (stereo not drawn) in this assay.
inactive

Answer briefly: the call reported for CCOC1(c2cccc([N+](=O)[O-])c2)c2ccccc2Oc2ccccc21 in this assay.
inactive

Answer briefly: the call reported for O=C(NNc1ccccc1)c1ccc(Cl)c(Cl)c1 in this assay.
inactive

Answer briefly: the call reported for O=C1OC(OC/C(Br)=C(\Br)COC2OC(=O)C(Cl)=C2Cl)C(Cl)=C1Cl (stereo not drawn) in this assay.
inactive

Answer briefly: the call reported for Nc1n[n+]([O-])c2ccc(Cl)cc2[n+]1[O-] in this assay.
active

Answer briefly: the call reported for CCc1cc(O)c(Cl)c(C)c1Cl in this assay.
inactive

Answer briefly: the call reported for COc1cccc2c1C(=O)c1c(O)c3c(c(O)c1C2=O)CC(O)(C(O)CO)CC3OC1CC(N2CCOCC2)C(O)C(C)O1 (stereo not drawn) in this assay.
active

---

Assay: NCI Yeast Anticancer Drug Screen. Data for the wt1 strain (AID 149);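 further: 0% = growth of vehicle-treated wt1 cultures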
Settings: S. cerevisiae wt1 strain (SPY 50644) growth inhibition; at 11.0 µM; stronger effect = higher value
This is part of a sample that, as a whole, favours compounds with a hit. Of some 79,000 tested, about 15% had one in any assay.
Below: a set of entries, each annotated with reported growth inhibition.
Report the figure in % without appending any unit label.

See these solved cases before continuing.
molecule | scale.unit | growth inhibition
Cc1c2cc[n+](Cc3ccc(I)cc3)cc2c(C)c2c1[nH]c1ccccc12 | % | 89
Cc1c2ccnc(C(=O)NCCN(C)C)c2cc2c3cc(O)ccc3n(C)c12 | % | 10
Cc1ccc([N+]2=NC(c3ccccc3)=NN(c3ccccc3)C2)cc1 | % | 8
O=C1C(Br)=C(c2ccccc2)O/C1=C/C(=O)c1ccc(Br)cc1 | % | 10
O=[N+]([O-])c1cccc2nc3ccccc3c(NCCCn3ccnc3[N+](=O)[O-])c12 | % | 37
CC1=NOC(=O)/C1=C/c1ccc2c(c1)OCO2 | % | 2
CN(C)CCCCN1c2ccccc2Sc2ccc(N=[N+]=[N-])cc21 | % | 36
N#CC(=Nc1ccccc1F)Nc1ccccc1F | % | -11
S=C1SCN(C2CCCCC2)CN1C1CCCCC1 | % | -29
NC1CCCCC1N.Nc1c(N=Nc2ccc(-c3ccc(N=Nc4cc(S(=O)(=O)[O-])c5ccccc5c4N)cc3)cc2)cc(S(=O)(=O)[O-])c2ccccc12.[OH3+].[OH3+].[Pt+4] | % | 26

Identify the reported growth inhibition for the following entry. COc1cc(/C=N/Nc2nnc3c4ccccc4c4ncccc4c3n2)cc(OC)c1OC
-1

Identify the reported growth inhibition for the following entry. O=c1c2ccccc2nc(-c2ccccc2)n1O
63

Identify the reported growth inhibition for the following entry. C=C(C(=C)n1nnc(C(=O)OC)c1C(=O)OC)n1nnc(C(=O)OC)c1C(=O)OC
1

---

Test: NCI Yeast Anticancer Drug Screen. Data for the rad18 strain (AID 177)
Conditions: S. cerevisiae rad18 mutant growth inhibition; at 1.2 µM
About 79,000 compounds went through this panel and 15% of them were active in at least one assay; those are over-represented in the sample as a whole. Active and inactive are the calls of the source. Rule as the data show it: active = growth inhibition above about 70%; inactive = the rest.
Thanks in advance; please answer with one of these: active, inactive

Check out these entries, answers already filled in.
molecule | assigned.class
CCOC1Oc2ccccc2-c2nc(N)ncc21 (stereo unspecified) | inactive
CN(C)CCNC(=O)c1cccc2c1Oc1c(cccc1[N+](=O)[O-])O2 | inactive
O=C1c2cccnc2C(=O)C2C3C=CC(C3)C12 (stereo unspecified) | inactive
CCCCOCn1c(=O)[nH]c(=O)c2cc(Br)ccc21 | inactive
CC(=O)OCC(C)Cc1cc2c(cc1Br)OCO2 (stereo unspecified) | inactive
CC(C)(C)N=C(NO)c1ccccc1 | inactive
C=C(Cl)COC(=O)Nc1cccc(Cl)c1 | inactive
Nc1nc2ccc(NCc3ccc(C(=O)NC(CCC(=O)O)C(=O)O)cc3)cc2c(=O)[nH]1 (stereo unspecified) | inactive

Answer briefly: the call reported for Cc1nc(Nc2ccccc2[N+](=O)[O-])sc1C(=O)CC(=O)C(=O)Nc1c(C(C)C)cccc1C(C)C in this assay.
inactive

Answer briefly: the call reported for COc1ccc(/C=C/c2sc3ccccc3[n+]2CCCCI)cc1OC in this assay.
inactive

Answer briefly: the call reported for OC1(c2ccccc2)CCCc2ccc(Cl)cc21 (stereo unspecified) in this assay.
inactive

Answer briefly: the call reported for CC1CC(C)(C)CC(OCCN2CCCCC2)(c2ccccc2)C1 (stereo unspecified) in this assay.
inactive

Answer briefly: the call reported for O=C(CC(=O)n1nc(-c2ccccc2)c(N=Nc2ccc(Cl)cc2)c1-c1ccccc1)Nc1cccc(Cl)c1 in this assay.
inactive

Answer briefly: the call reported for O=[N+]([O-])c1cccc2nc3ccccc3c(NCCCn3ccnc3[N+](=O)[O-])c12 in this assay.
active

Answer briefly: the call reported for Nc1ncnc2c1ncn2C1OC(CO)CC1O (stereo unspecified) in this assay.
inactive

Answer briefly: the call reported for CCC(C)NC1=NCC(C)S1 (stereo unspecified) in this assay.
inactive

---

Experiment: NCI Yeast Anticancer Drug Screen. Data for the rad50 strain (AID 155);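 further: 0% = growth of vehicle-only cultures of the same strain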
Conditions: S. cerevisiae rad50 strain growth inhibition; at 3.7 µM; stronger effect = higher value
Compounds without any hit were thinned out: in the full panel of roughly 79,000, 15% have a hit.
Below: a set of entries, each annotated with reported growth inhibition.
Report the figure in % without appending any unit label.

See these solved cases before continuing.
molecule | growth inhibition, %
O=[N+]([O-])c1cccc2nc3ccccc3c(NCCC[N+]3([O-])CCCCC3)c12 | 16
Cc1ccc(CC2(OCCN(C)C)CCC(C(C)(C)C)CC2)cc1 (stereo unspecified) | 0
O=C1/C(=C/c2ccccc2)CCCC1CN1CCCCC1 (stereo unspecified) | 26

Identify the reported growth inhibition for the following entry. Cc1c(C)c(C)c(CSC(=N)N)c(C)c1C
-10

Identify the reported growth inhibition for the following entry. Cc1cc(NCCCCCCCCNc2cc(C)nc3cc(N)ccc23)c2ccc(N)cc2n1
-32

Identify the reported growth inhibition for the following entry. CN(C)c1nc(=Nc2cccc(Cl)c2)ss1
32

---

Experiment: NCI Yeast Anticancer Drug Screen. Data for the rad50 strain (AID 155);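 further: 0% = growth of vehicle-only cultures of the same strain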
Details: S. cerevisiae rad50 strain growth inhibition; at 1.2 µM; stronger effect = higher value
This is part of a sample that, as a whole, favours compounds with a hit. Of some 79,000 tested, about 15% had one in any assay.
Below: a set of entries, each annotated with reported growth inhibition.
Report the figure in % without appending any unit label.

compound | measure | scale.unit | reading
CC(=O)OCC1OC2OC(=O)NC2C(OC(C)=O)C1OC(C)=O (stereo not given) | growth inhibition | % | -5
O=C(Oc1ccc2c(c1)CN(Cc1ccccc1)CO2)c1ccccc1 | growth inhibition | % | 2
COc1cc([C@@H]2c3cc4c(cc3[C@H](OC3OC5COC(C(C)C)OC5C(O)C3O)C3COC(=O)[C@@H]32)OCO4)cc(OC)c1O (stereo not given in full) | growth inhibition | % | -22

Identify the reported growth inhibition for the following entry. C[C@@](O)(/C=C/[C@H]1CC=CC(=O)O1)[C@@H](C[C@@H](O)\C=C/C=C\C=C\CO)OP(=O)(O)O
27

Identify the reported growth inhibition for the following entry. OC(CCNCc1ccccc1)c1ccc2ccccc2c1 (stereo not given)
15

Identify the reported growth inhibition for the following entry. CCC(C)(C)c1ccc(Oc2cccc(C(=O)O)c2)cc1
2

Identify the reported growth inhibition for the following entry. Cc1ccc(NC(=O)/C(CC2N=c3c(ccc4c(O)c5ccccc5c(O)c34)=NC2O)=N/NC(C)(C)C)cc1 (stereo not given)
17

Identify the reported growth inhibition for the following entry. COC(=O)CC1CCc2c(ccc3ccccc23)C1(C)C(=O)OC (stereo not given)
1

Identify the reported growth inhibition for the following entry. Cc1ccc(N=Nc2ccc(O)c(=O)cc2)cc1
4

Identify the reported growth inhibition for the following entry. O=C1c2ccccc2C(=O)c2cc(CCl)ccc21
2
